// reported viability (% of control) for each item listed
experiment: Viability qHTS for spleen associated tyrosine kinase inhibitor (SYKi) naive MV4-11 cells (AID 1963823); conditions: MV4-11 AML viability, CellTiter-Glo luminescence, 72 h; series mostly up to 45 µM; also: nearly all actives have a fitted effect of over 40% in size
Results filed as inconclusive are left out. The source made the active and inactive calls. Calls follow the shape of the dose curve; as a rule, active = well fitted cell-killing curve with a large enough effect; inconclusive = small, poorly fitted or top-dose-only effect, or effect the other way; inactive = no such curve, though single readings can be large or run the other way.

For orientation, consider the following solved cases.
{"molecule": "C/C=C(\\C)C(=O)OC[C@H]1O[C@@H](O[C@H]2[C@@H](O[C@H]3O[C@H](COC(=O)/C(C)=C/C)[C@@H](O)[C@H](O)[C@H]3O[C@@H]3O[C@H](CO)[C@@H](O)[C@H](OC(=O)/C(C)=C/C)[C@H]3O)O[C@H](COC(=O)/C(C)=C/C)[C@@H](O)[C@@H]2O)[C@H](O)[C@@H](O)[C@@H]1O", "viability (% of control)": "81.6% [at 9.25 µM] (inactive)"}
{"molecule": "CC(C)=CCC[C@](C)(O[C@@H]1O[C@H](CO)[C@@H](O)[C@H](O)[C@H]1O)[C@H]1CC[C@]2(C)[C@@H]1[C@H](O)CC1[C@@]3(C)CC[C@H](O)C(C)(C)C3[C@@H](O[C@@H]3O[C@H](CO)[C@@H](O)[C@H](O)[C@H]3O[C@@H]3O[C@@H](C)[C@H](O)[C@@H](O)[C@H]3O)C[C@]12C (stereo partly specified)", "viability (% of control)": "90.7% [at 9.25 µM] (inactive)"}
{"molecule": "N[C@@H](Cn1ccc(=O)c(O)c1)C(=O)O", "viability (% of control)": "88% [at 4.97 µM] (inactive)"}

Exam item: Field request: viability (% of control) | item: CO[C@H]1C=C2C(CC[C@H](O[C@@H]3O[C@H](CO)[C@@H](O)[C@@H](O)[C@H]3O)C2(C)C)[C@]2(C)CC[C@]3(C)C([C@H](C)C(O)C(C=C(C)C)O[C@@H]4O[C@H](CO)[C@@H](O)[C@@H](O)[C@H]4O)CC[C@@]3(C)C12 (stereo partly specified)
Marked response: 86.9% [at 9.25 µM] (inactive)

Exam item: What do you have for COc1cc(C)c(C(=O)NC2C(C)OC(OC3CCC(C)C4C3C=C(C)C3/C(C)=C\CC/C(C)=C/C5(C)C=C(C(=O)O)C(C)CC56OC(=O)/C(=C(\O)C34C)C6=O)C(O)C2(C)O)c(O)c1 (stereo unspecified) ?
Marked response: 82.6% [at 9.25 µM] (inactive)

Exam item: What do you have for C[C@@H]1O[C@@H](O[C@H]2[C@H](O)[C@@H](O[C@@H]3O[C@H](CO)[C@H](O)[C@H](O)[C@H]3O)[C@H](O[C@H]3CC[C@@]4(C)C(CC[C@]5(C)C4CC=C4[C@@H]6CC(C)(C)CC[C@]6(C(=O)O[C@@H]6O[C@H](CO)[C@@H](O)[C@H](O)[C@H]6O)CC[C@]45C)C3(C)C)O[C@@H]2C(=O)O)[C@H](O)[C@H](O)[C@H]1O (stereo partly specified) ?
Marked response: 82.7% [at 9.25 µM] (inactive)

Exam item: What do you have for "O=C(Nc1ccn(Cc2c(F)cccc2C(F)(F)F)n1)c1c(F)cccc1F" ?
Marked response: 72.8% [at 9.25 µM] (inactive)

Exam item: What do you have for CC(C)CC1(C(=O)OCc2ccc(O[C@@H]3O[C@H](CO)[C@@H](O)[C@H](O)[C@H]3O)cc2)CC(=O)OC(C(=O)O)CC(=O)OCC2OC(O1)C(OC(=O)/C=C/c1ccc(O)cc1)C(O)C2O (stereo partly specified) ?
Marked response: 90.4% [at 9.25 µM] (inactive)

Exam item: What do you have for C[C@@H]1O[C@@H](O[C@H]2[C@H](O[C@H]3[C@H](O[C@H]4CC[C@@]5(C)C(CC[C@]6(C)C5CC=C5[C@@H]7CC(C)(C)CC[C@]7(C(=O)O[C@@H]7O[C@H](CO)[C@@H](O[C@@H]8O[C@@H](C)[C@H](O)[C@@H](O)[C@H]8O)[C@H](O)[C@H]7O)CC[C@]56C)C4(C)C)OC[C@H](O)[C@@H]3O)O[C@H](CO)[C@@H](O)[C@@H]2O)[C@H](O)[C@H](O)[C@H]1O (stereo partly specified) ?
Marked response: 3.73% [at 9.25 µM] (inactive)
